- System: K4 kissing-loop RNA reporter;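 note: bound reporter read as fluorescence of individual clusters on recovered sequencing chips by microscopy, with normalized cluster intensities fitted with a binding model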
- PROTOCOL_DESCRIPTION: apparent KD of K4 kissing-loop reporter; higher = weaker reporter binding
- RECORDED_CONDITIONS: Eterna round: R107; input ligand: none
Please respond with reported apparent KD of K4 kissing-loop reporter for every item in the list.
I only need the number, in µM, no unit after it.

-- ask Query (sequence): GGUGGCGUUGUUGACAGCUCACCACGAGCCAAGGAUAUAGUUUCUUCUAGAAGGUGGAAUGACAAGUGAUGUUUGUACGACUGCU [theeternabot_exclusion_KL_FMN_A_28] ; field requested: apparent KD of K4 kissing-loop reporter
-- reply 0.254

-- ask Query (sequence): GGGAGUAGUGCGGCCGCCACUGAGAAAGAAGAAGAAUAUAGUGAUGUUAUAUAGGAAUAAAAGAACAGGACCGGGCAUUAGAUUU [SSTRyptB.T] ; field requested: apparent KD of K4 kissing-loop reporter
-- reply 0.255

-- ask Query (sequence): CGCGUUGGUUGAGAGGUUGGCGCGAAUGAUACCAGUAUAUAAGAAUACCCUUGGCAGCAUAAGAAAGAUAUAGUGAUGUUGUAUA [SSTheophA.I] ; field requested: apparent KD of K4 kissing-loop reporter
-- reply 0.454

-- ask Query (sequence): GGUGACGACCAGAGGUGAUGUAUAGUAUCGCGAGGACCGGUACGGCCGCCACUCGUGAAGAGAAAGGAGUGAUGUUCCGUAAUGG [Kazoo C9] ; field requested: apparent KD of K4 kissing-loop reporter
-- reply 0.289

-- ask Query (sequence): GCUAUGGUAGGAAGGAGCGCUGCCUUGUUUUUACGAGUGAUGUUCGGAAGCAGGGCGUUAAAGCAGGUAGGUCGCCUACUAUAGC [Arginine B K4 22] ; field requested: apparent KD of K4 kissing-loop reporter
-- reply 0.152

-- ask Query (sequence): GGAUAGGACACGGCCGCCACUACCGAGGAUACUCGAAACAUUUCCUCAGAUGAGUGAUGUUCAUCUAGGACCGGGUGUCCUAUCG [KL-XTryp-B19 #analogue] ; field requested: apparent KD of K4 kissing-loop reporter
-- reply 0.118

-- ask Query (sequence): AGAAGAGUGAUGUUCUUCUAUAUCUCAGAAGGAGCGACAUUAAUGUCAGGUAGGUCGCUGAGAUGAAAUCUCACACAGAUCUUGG [Arg A SS t8a] ; field requested: apparent KD of K4 kissing-loop reporter
-- reply 0.149

-- ask Query (sequence): AGUAUGUAAUAUGGCAUAUUUAGAACUGAAGGAGCGCCGAAUAAGGCAGGUAGGUCGCGGAAAUAUGAGUGAUGUUCAUGUUUAA [KL-SSArg-A25] ; field requested: apparent KD of K4 kissing-loop reporter
-- reply 0.101

-- ask Query (sequence): GUUACGCAUGGAAGGAGCGCUCUCCGGCUUAUUAACACAGUGAUGUUGUGAUUUUGCCGAAAGCAGGUAGGUCGCCAUGUGUAAC [Ex Arginine B K4 11] ; field requested: apparent KD of K4 kissing-loop reporter
-- reply 0.451

-- ask Query (sequence): UGGAGUUGACGAAAAGUCAACUCCUGAGAUACCAGUGACGAAGGUCACCCUUGGCAGCUCACUGCUAGUGAUGUUGGAAGAUAAA [whbob_SS_Theo_A_w48] ; field requested: apparent KD of K4 kissing-loop reporter
-- reply 0.913

-- ask Query (sequence): UAGUGGUAGACCAGAUCUACCACUAGGGAUACCAGCCUCGGUCGAGGCCCUUGGCAGCCCAGCGGGUCCAGUGAUGUUGGAUGUC [Raanza] ; field requested: apparent KD of K4 kissing-loop reporter
-- reply 0.322

-- ask Query (sequence): CGCGCGGGUUUGAGAGGGUUCGCGCGAAGUGAGGAUAUUUAGGGAGAAAGAAGGCACUAUAAAAUAUAGUGAUGUUAUAUAAGGG [SSFMNA.H] ; field requested: apparent KD of K4 kissing-loop reporter
-- reply 1.11
